Target: T1, Axl protein (human, UniProt P30530 26-451)
T1 construct: extracellular domain; also called human Axl; hAxl
T1 sequence (looked up): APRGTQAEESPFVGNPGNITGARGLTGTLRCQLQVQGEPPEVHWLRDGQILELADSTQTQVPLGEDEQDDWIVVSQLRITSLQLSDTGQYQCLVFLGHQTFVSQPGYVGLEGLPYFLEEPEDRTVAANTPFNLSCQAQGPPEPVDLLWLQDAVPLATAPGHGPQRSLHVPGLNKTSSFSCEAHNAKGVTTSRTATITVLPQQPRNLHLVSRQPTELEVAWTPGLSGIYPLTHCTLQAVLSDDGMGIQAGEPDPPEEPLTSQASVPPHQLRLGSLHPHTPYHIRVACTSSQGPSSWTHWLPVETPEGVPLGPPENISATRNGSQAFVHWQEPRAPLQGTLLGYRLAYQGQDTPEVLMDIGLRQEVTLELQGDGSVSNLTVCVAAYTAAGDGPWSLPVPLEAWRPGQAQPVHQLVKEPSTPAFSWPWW
Assay: ELISA, 1:9 dilution, pH 6.0 over pH 7.4
Entries annotated with measured Affinity ELISA CPE mutant ratio (1:9, pH 6.0/7.4)
Your answer should be a plain number; it is taken to be in ratio.

binder	unitAbbrev	resultValue
HC-W110N (antibody, V domains shown) VH: EVQLVQSGAEVKKPGATVKISCKVSGYSFTGHTMNWIRQPPGKGLEWIGLIKPSNGGTSYNQKFKGRVTISADKSISTAYLQWSSLKASDTAMYYCAHGHYESYFAMDYNGQGTLVTVSS VL: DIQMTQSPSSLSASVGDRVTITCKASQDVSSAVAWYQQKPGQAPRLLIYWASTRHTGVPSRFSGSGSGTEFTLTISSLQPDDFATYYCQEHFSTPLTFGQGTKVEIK	ratio	0.8
HC-W110H (antibody, V domains shown) VH: EVQLVQSGAEVKKPGATVKISCKVSGYSFTGHTMNWIRQPPGKGLEWIGLIKPSNGGTSYNQKFKGRVTISADKSISTAYLQWSSLKASDTAMYYCAHGHYESYFAMDYHGQGTLVTVSS VL: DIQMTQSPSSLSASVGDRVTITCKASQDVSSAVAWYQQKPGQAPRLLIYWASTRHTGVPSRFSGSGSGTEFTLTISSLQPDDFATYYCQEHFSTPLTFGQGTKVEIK	ratio	0.932

Query: # query: Affinity ELISA CPE mutant ratio (1:9, pH 6.0/7.4) of entry HC-P053N (antibody, V domains shown) VH: EVQLVQSGAEVKKPGATVKISCKVSGYSFTGHTMNWIRQPPGKGLEWIGLIKNSNGGTSYNQKFKGRVTISADKSISTAYLQWSSLKASDTAMYYCAHGHYESYFAMDYWGQGTLVTVSS VL: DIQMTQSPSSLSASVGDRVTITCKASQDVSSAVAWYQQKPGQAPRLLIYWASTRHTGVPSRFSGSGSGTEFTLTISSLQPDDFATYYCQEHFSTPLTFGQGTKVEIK
Result: 1.89
